Biological target: PPAR-γ (Homo sapiens, UniProt P37231)
Sequence (P37231 whole entry, species assumed): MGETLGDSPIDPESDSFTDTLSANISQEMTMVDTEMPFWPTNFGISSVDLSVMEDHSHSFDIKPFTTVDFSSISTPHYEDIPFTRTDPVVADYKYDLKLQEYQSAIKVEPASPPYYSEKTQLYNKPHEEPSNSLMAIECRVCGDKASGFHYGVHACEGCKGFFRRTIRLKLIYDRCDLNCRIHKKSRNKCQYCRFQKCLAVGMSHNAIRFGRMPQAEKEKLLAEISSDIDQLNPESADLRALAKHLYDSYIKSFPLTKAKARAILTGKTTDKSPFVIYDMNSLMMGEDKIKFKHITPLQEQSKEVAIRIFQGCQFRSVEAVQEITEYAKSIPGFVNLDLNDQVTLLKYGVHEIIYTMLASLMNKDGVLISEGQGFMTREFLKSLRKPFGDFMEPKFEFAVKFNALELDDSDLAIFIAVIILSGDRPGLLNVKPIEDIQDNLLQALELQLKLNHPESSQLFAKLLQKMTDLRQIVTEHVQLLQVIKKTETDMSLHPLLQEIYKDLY
Experiment: Scintillation Proximity Assay (SPA), displacement of 3H labeled darglitazone
Type: binding
Conditions: 3H darglitazone displacement, read-out: PPAR-gamma Ki
For each record, check the reported Ki: if it is below 0.5 µM write met, else write not met.

Ask: Take the molecule O=C(O)C1(Oc2cccc(-c3cccc(OCc4cc(-c5ccccc5)no4)c3)c2)CCC1 [Example A-14] and say whether its Ki is less than 0.5 µM.
Reply: not met

Ask: Take the molecule Cc1oc(-c2ccc(C(F)(F)F)c(F)c2)nc1CCOc1ccc(CC2(C(=O)O)CCC2)cc1 [Example C-24] and say whether its Ki is less than 0.5 µM.
Reply: met

Ask: Take the molecule CCOC(Cc1ccc(OCCc2ccc(OS(C)(=O)=O)cc2)nc1)C(=O)O [Example D-19] and say whether its Ki is less than 0.5 µM.
Reply: not met

Ask: Take the molecule CCOC(Cc1ccc(OCCc2ccc(OC(F)(F)F)cc2)nc1)C(=O)O [Example D-20] and say whether its Ki is less than 0.5 µM.
Reply: met

Ask: Take the molecule Cc1oc(-c2ccccc2)nc1CCCOc1cccc(-c2cccc(OC(C)(C)C(=O)O)c2)c1 [Example A-23] and say whether its Ki is less than 0.5 µM.
Reply: met
